Where do the numbers come from? From ChEMBL document CHEMBL1132169.

target.system: Sodium-dependent dopamine transporter (Rattus norvegicus, UniProt P23977)
Sequence (P23977 whole entry): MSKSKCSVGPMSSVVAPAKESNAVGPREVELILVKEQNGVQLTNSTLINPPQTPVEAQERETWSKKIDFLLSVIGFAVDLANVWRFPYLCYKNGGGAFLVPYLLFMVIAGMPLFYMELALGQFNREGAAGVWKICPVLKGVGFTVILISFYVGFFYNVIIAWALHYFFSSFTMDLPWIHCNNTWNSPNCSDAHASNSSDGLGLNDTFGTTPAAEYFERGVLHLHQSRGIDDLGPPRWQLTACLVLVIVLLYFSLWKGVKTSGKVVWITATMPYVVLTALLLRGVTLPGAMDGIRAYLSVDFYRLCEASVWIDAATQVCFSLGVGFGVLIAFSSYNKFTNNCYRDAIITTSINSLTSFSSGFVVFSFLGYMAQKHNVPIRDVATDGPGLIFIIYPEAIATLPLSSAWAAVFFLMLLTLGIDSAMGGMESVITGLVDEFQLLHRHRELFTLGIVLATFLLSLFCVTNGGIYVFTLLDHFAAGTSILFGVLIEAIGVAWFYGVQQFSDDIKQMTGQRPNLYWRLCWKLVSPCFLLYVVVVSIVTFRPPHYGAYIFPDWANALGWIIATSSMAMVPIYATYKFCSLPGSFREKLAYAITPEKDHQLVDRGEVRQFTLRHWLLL
experiment: Inhibition of dopamine uptake into rat striatal tissue, using [3H]- dopamine as the radioligand.
Assay type: tissue-based, Striatum
Catalogue of compounds with associated IC50
attribute.measured: IC50 (µM)

# compound, result.value
records = [
    ("NCC1C2CCC(C2)C1c1ccccc1 (stereo in doubt; 13a)", 3.5),
    ("CN(C)CC1C2CCC(C2)C1c1ccccc1 (stereo in doubt; 14a)", 2.75),
    ("CN(C)CC1C2CCC(C2)C1c1ccccc1 (stereo in doubt; 10a)", 1.1),
    ("NCC1C2CCC(C2)C1c1ccc(Cl)c(Cl)c1 (stereo in doubt; 13d)", 0.0987),
    ("COc1ccc(C2C3CCC(C3)C2CN)cc1 (stereo in doubt; 9g)", 5.55),
    ("COc1ccccc1C1C2CCC(C2)C1CN (stereo in doubt; 9e)", 36.6),
    ("NCC1C2CCC(C2)C1c1ccc(Cl)cc1 (stereo in doubt; 11c)", 0.593),
    ("CN(C)CC1C2CCC(CC2)C1c1ccccc1 (stereo in doubt; 8a)", 0.98),
    ("COc1ccc(C2C3CCC(C3)C2CN)cc1 (stereo in doubt; 13g)", 2.26),
    ("CN(C)CC1C2CCC(CC2)C1c1ccccc1 (stereo in doubt; 6a)", 0.84),
    ("NCC1C2CCC(C2)C1c1ccccc1 (stereo in doubt; 9a)", 2.22),
    ("NCC1C2CCC(CC2)C1c1ccccc1 (stereo in doubt; 7a)", 1.48),
    ("COc1ccccc1C1C2CCC(C2)C1CN (stereo in doubt; 11e)", 7.86),
    ("NCC1C2CCC(C2)C1c1cccc(Cl)c1 (stereo in doubt; 9b)", 0.758),
    ("NCC1C2CCC(C2)C1c1ccccc1 (stereo in doubt; 15a)", 0.875),
    ("CN(C)CC1C2CCC(CC2)C1c1cccc(Cl)c1 (stereo in doubt; 8b)", 0.283),
    ("COc1ccc(C2C3CCC(CC3)C2CN(C)C)cc1 (centres undefined)", 1.43),
    ("NCC1C2CCC(CC2)C1c1ccc(Cl)c(Cl)c1 (stereo in doubt; 5d)", 0.0975),
    ("COc1ccc(C2C3CCC(C3)C2CN)cc1 (stereo in doubt; 11g)", 7.12),
]
